Test: soluble on expression in E. coli; label from the status in PepcDB or PDB records
quantity name: soluble on expression in E. coli

SGLIGEGLKDVKSAAGDTRVDNFADRLAALSQAAQPARAVAAPASAPLMNQPLAMHQSGWTEGIVDRVMYLSSQNLKTADIKLEPAELGRLDIRINMAPEQQTQVTFMSAHMGVRDALESQMSKLRESFVQQGLGNVDVNVSDQS = not soluble
MPLEAGLLEILACPACHAPLEERDAELICTGQDCGLAYPVRDGIPVLLVDEARRPEAAALEHHHHHH = not soluble
MGSDKIHHHHHHMHHSHHLEIYEKLREKLNKAPIGLPKTVSGVEKELLSVLFDEEEAKIAVHMPFIRFTAEQLAERTGKSLEYVEKILNEMAKKGTVWKGEKDGQTYYRLFPVIVGFAETPFWPGPGKDPRQEKLARLWSQYRKEGFLDEIGDREHPIMRALPERDTISEKSEILPYEDAVKLVKERDYIAVGYCPCRVMARLVGEGCRHSIENCIHMGSVGKYMVEHGLGRRISADEAIEILRQSNREGLVHLTERSKHVATICNCCSDCCVFFKAVHEAKHPNTIAHSSYLATVDTSRCIACGICMLRCPMKAIKAKINREPASVDAEKCLGCGVCVPTCPMEAIELVERDELLELPDGMTYVQELLADKGRDPSGLF = not soluble

----------
Assay: soluble on expression in E. coli; label from the status in PepcDB or PDB records
quantity name: soluble on expression in E. coli

MPKNKGKGGKNRRRGKNDSEGDKRELVFKEEGQEYGQVQRMLGNGRLDAYCFDGQKRLCHIRGKMRKKVWVNPGDIVLVSLRDFQDSKGDIILKYTPDEARALKSKGEIPETTKINE = soluble
MSLKTLAFDTSNKTLSLAILDDETLLADMTLNIQKKHSVSLMPAIDFLMTCTDLKPQDLERIVVAKGPGSYTGLRVAVATAKTLAYSLNIALVGISSLYALAASTCKQYPNTLVVPLIDARRQNAYVGYYRQGKSVMPQAHASLEVIIEQLVEEGQLIFVGETAPFAEKIQKKLPQAILLPTLPSAYECGLLGQSLAPENVDAFVPQYLKRVEAEENWLKDNEIKDDSHYVKRIEGHHHHHH = soluble

----------
Assay: soluble on expression in E. coli; label from the status in PepcDB or PDB records
quantity name: soluble on expression in E. coli

See these solved cases before continuing.
EEQPRLFELLGQPGYKATWHAMFKGESDVPKWVSDASGPSSPSTSLSLEGQPYVLANSCKPHDCGNNRLLVAFRGDKSAAYGLQVSLPDEPAEVMQTPSKYATYRWYGEPSRQVRELLMKQLESDPNWKLEHHHHHH = soluble
KRRAALNLRIFATEGAMMLGVTLSRLEGRSFIERSPGRRPFFKPGPLSPRLSRAFVNLSRLQRGGSFADPFCGTGGFAIEACLLGASRIACGDLDWAMVRGGPLNLSRYCPPGIWFYSAWNAAKLPLSSNSVDSIATDPPYGRSTTTGRMGYLSLTRAFLNTAVEVLRSEGWIVYAGPTRMSPETLAEDAGLRVVKVIEMFVHGSLTRSIVVARFG = not soluble
GLIIGPEEDYDPGYFNNESDIIFQDLEKLKSHPAYLVVFLRYILSQADPGPLLFYLCSEVYQQTNPKDSRSLGKDIWNIFLEKNAPLRVKIPEMLQAEIDLRLRNNEDPRNVLCEAQEAVMLEIQEQINDYRSKRTLGLGSLYGENDLLGLDGDPLRERQMAEKQLAALGDILSKYEEDRSAPMDFAVNTFMSHAGIRLRESR = soluble
MYIKNSERLKFRLMDSKDAQELWEIDQDPTVMKFLNGGNPTSIEQVNSVFIPRMNKYRNSELGWGIWQVSNKVTDEYLGWVLIRPMSFFTESPNTKDLELGWRFFQSTWGKGYATEAAIAIRDAVVANTDVTHVSALAVADNLASVGVMKKMGMHFVRAYLHEDPIGDFDAVHYQMSVRNK = not soluble

Here are 4 sequences. What values of soluble on expression in E. coli were reported for them?
1. MKETNAGSVYSPELIEFATVGVEFCALVEQAAAHRTTDFIDKASKVLPLLYLKTALLPPYEYSEEVDFVEEYITEESYEQVRSAVESLLGSYDSFLDARHSDMQYSDTPVGASIGECLADVYQQVGNLLGVVRQSNDRAIPQAIGRCLTYFGEYWGNRLLAAAGALHELRYSEVYRTWEEEERAED
2. MRKLAAFLGLVGLLSLGLAQSAQEILDRVEKNLSTPWQATVQGRIQGPGGEEELLARVYALPQARLFRVEFLKPGSLEGNFTVITEKEVWNYLYLTNQLVISPREKAKIQGLGFAPQGLGDLKALSEQVDLRLEGEVRLPEGMAWKLVGRSKENQGFAAMELYILKADPRPLRFVFLDEKGKVLADLKVVEFKRTNLTEAQLKRYPKDAQVVRR
3. MSLEEVIEQLREANEPVPVPLELPDEDQLVEIEEQLFINIPFVFKEFLLTVSDVVYGSLEPVTVTDPQSHTYLPEVCATAWDLGVPRELIPICQDGEDYYCVEEDGTVLLWSAEEELVTEESWESVWHWARDVWLESEGHHHHHH
4. GPGSMLRSLFGRPSLAVLNNYGHMARPASPLLCSQRGVFADRVRAGMILKVDKRYYRVLANTRSQKGQNAASFNIKLTEVGTGRKKEVTAGHGHDFAEARAERVRLLFSGFDDDDMACFVYPEHSSDAGKEVNIPGDSLPELQQKFLCCGMPVDVLHIMPDDDESPNEKDIWSEVVMPSNYTYTVEKLTLKGMYKMAAFVECDGIIGVNDSVQVNDKVKVVIKPDGTAAFGGRAT

Reply:
1. soluble
2. soluble
3. soluble
4. not soluble

Where do these numbers come from? They come from the DeepSol protein solubility set.
